Lab note: AC50 readings collected with Thromboxane A2 receptor (Homo sapiens) for the following compounds.
Sequence (P21731 whole entry): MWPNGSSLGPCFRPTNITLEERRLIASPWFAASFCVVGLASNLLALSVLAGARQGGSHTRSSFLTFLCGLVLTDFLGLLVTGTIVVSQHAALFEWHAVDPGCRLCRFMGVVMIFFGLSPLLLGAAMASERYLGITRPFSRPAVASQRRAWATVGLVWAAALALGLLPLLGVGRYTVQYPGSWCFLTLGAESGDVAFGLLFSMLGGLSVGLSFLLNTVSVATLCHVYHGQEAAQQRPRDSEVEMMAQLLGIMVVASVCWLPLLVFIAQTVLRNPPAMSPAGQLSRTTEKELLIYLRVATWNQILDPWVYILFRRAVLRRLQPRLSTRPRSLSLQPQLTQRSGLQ

| Compound | AC50 |
| --- | --- |
| CC(=O)OCC(CCn1cnc2cnc(N)nc21)COC(C)=O | > 30 µM |
| CCCCC[C@H](O)/C=C/[C@H]1[C@H](O)CC(=O)[C@@H]1C/C=C\CCCC(=O)O | 3.5 µM |
| O=C(CCCN1CCC2(CC1)C(=O)NCN2c1ccccc1)c1ccc(F)cc1 | > 30 µM |
| CC(=O)Oc1ccccc1C(=O)Nc1ncc([N+](=O)[O-])s1 [NITAZOXANIDE] | 5 µM |
| C#C[C@]1(O)CC[C@H]2[C@@H]3CCC4=CC(=O)CCC4=C3C=C[C@@]21CC | > 30 µM |
| NCCCC(O)(P(=O)(O)O)P(=O)(O)O | > 30 µM |
| CN1c2ccccc2C(NCCCCCCC(=O)O)c2ccc(Cl)cc2S1(=O)=O (stereo not given) | > 30 µM |
| CC(C)C[C@H](CN)CC(=O)O | > 30 µM |
| CCN(CC)C(=O)C1CN2CCc3cc(OC)c(OC)cc3C2CC1OC(C)=O (stereo not given) [BENZQUINAMIDE] | > 10 µM |
| CC(/C=C1\SC(=S)N(CC(=O)O)C1=O)=C\c1ccccc1 | 27 µM |
| CNCCCC1c2ccccc2C=Cc2ccccc21 | > 10 µM |
| COc1ccc(/C=C/C(=O)Nc2ccccc2C(=O)O)cc1OC | > 30 µM |
| O=C1CN=C(c2ccccc2)c2cc(Cl)ccc2N1 | > 30 µM |
| CC(CCc1ccccc1)NC(C)C(O)c1ccc(O)cc1 (stereo not given) | > 30 µM |
| N#Cc1ccccc1-c1cc(-c2ccccn2)cn(-c2ccccc2)c1=O | > 30 µM |
| Nc1nc2c(c(=O)[nH]1)N(C=O)C(CNc1ccc(C(=O)N[C@@H](CCC(=O)O)C(=O)O)cc1)CN2 (stereo not given in full) | > 30 µM |
| COc1cc(OC)c(C(=O)CCCN2CCCC2)c(OC)c1 | > 30 µM |
| Cc1cnc(NC(=O)C2=C(O)c3ccccc3S(=O)(=O)N2C)s1 | > 30 µM |
| Clc1cccc(Cl)c1N=C1NCCN1 | > 30 µM |
| O=C1NC(=O)C(c2ccccc2)(c2ccccc2)N1 | > 30 µM |

----------
Lab note: AC50 readings collected with UniProt Q99808 for the following compounds.
Sequence (Q99808 whole entry): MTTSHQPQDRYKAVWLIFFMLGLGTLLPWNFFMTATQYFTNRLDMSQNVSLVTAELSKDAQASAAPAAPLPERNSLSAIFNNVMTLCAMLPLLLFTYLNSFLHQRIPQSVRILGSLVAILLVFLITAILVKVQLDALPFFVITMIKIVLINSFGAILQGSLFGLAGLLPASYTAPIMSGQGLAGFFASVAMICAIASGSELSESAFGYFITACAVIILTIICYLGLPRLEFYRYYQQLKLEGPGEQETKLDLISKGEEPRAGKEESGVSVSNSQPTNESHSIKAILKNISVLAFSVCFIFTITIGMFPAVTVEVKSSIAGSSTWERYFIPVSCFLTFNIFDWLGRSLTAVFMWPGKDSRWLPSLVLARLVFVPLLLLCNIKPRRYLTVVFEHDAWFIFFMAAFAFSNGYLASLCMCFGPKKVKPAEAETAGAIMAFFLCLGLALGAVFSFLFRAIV
Measure name: AC50

| Compound | Measure name | Reported result |
| --- | --- | --- |
| CC(=O)OCC[N+](C)(C)C [ACETYLCHOLINE] | AC50 | > 30 µM |
| Cc1cnc(NC(=O)C2=C(O)c3ccccc3S(=O)(=O)N2C)s1 [MELOXICAM] | AC50 | > 30 µM |
| CC(C)OC(=O)C(C(=O)OC(C)C)=C1SC=CS1 [MALOTILATE] | AC50 | > 30 µM |
| CC(CCc1ccccc1)NC(C)C(O)c1ccc(O)cc1 (centres undefined) [NYLIDRIN] | AC50 | > 30 µM |
| CC(=O)Oc1ccccc1C(=O)Nc1ncc([N+](=O)[O-])s1 [NITAZOXANIDE] | AC50 | 1.9 µM |
| CCN(CC)CCOC(=O)c1ccc(N)cc1Cl [CHLOROPROCAINE] | AC50 | > 30 µM |
| NS(=O)(=O)c1cc2c(cc1C(F)(F)F)NC(Cc1ccccc1)NS2(=O)=O (centres undefined) [BENDROFLUMETHIAZIDE] | AC50 | > 30 µM |
| NS(=O)(=O)c1cc(C2(O)NC(=O)c3ccccc32)ccc1Cl (centres undefined) [CHLORTHALIDONE] | AC50 | > 10 µM |
| CC#CCn1c(N2CCC[C@@H](N)C2)nc2c1c(=O)n(Cc1nc(C)c3ccccc3n1)c(=O)n2C [LINAGLIPTIN] | AC50 | > 30 µM |
